Tested on: NKL (IL-2 2.5 ng/mL)
assay_notes: percent inhibition of viability; higher = more inhibition
run_conditions: 72 h; 1 nM
The compounds listed here are annotated with their percent inhibition of viability.

{"columns": ["compound", "percent inhibition of viability, %"],
 "data": [
  ["O=C1CCC(N2C(=O)c3ccccc3C2=O)C(=O)N1 (stereo not drawn) [Thalidomide] (max concentration tested 10000 nM)", -18.5],
  ["CNC(=O)c1cc(Oc2ccc(NC(=O)Nc3ccc(Cl)c(C(F)(F)F)c3)cc2)ccn1 [Sorafenib] (max concentration tested 1000 nM)", -17.9],
  ["O[C@H]1CC[C@H](Nc2ncc3nc(Nc4c(F)cc(F)cc4F)n([C@H]4CCOC4)c3n2)CC1 [Tanzisertib] (max concentration tested 10000 nM)", -12.2]
]}

###

Test system: DERL-7 (IL-2 2.5 ng/mL)
assay_notes: percent inhibition of viability; higher = more inhibition
run_conditions: 72 h; 10 nM

{"columns": ["compound", "system", "percent inhibition of viability [%]"],
 "data": [
  ["CN(C)/N=N/c1[nH]cnc1C(N)=O [Dacarbazine] (max concentration tested 10000 nM)", "DERL-7 (IL-2 2.5 ng/mL)", -7.71],
  ["CNNCc1ccc(C(=O)NC(C)C)cc1 [Procarbazine] (max concentration tested 10000 nM)", "DERL-7 (IL-2 2.5 ng/mL)", -2.97],
  ["CN(C)C[C@@H]1CCn2cc(c3ccccc32)C2=C(C(=O)NC2=O)c2cn(c3ccccc23)CCO1 [Ruboxistaurin] (max concentration tested 10000 nM)", "DERL-7 (IL-2 2.5 ng/mL)", 1.57],
  ["NC(=O)c1cccc2cn(-c3ccc([C@@H]4CCCNC4)cc3)nc12 [Niraparib] (max concentration tested 10000 nM)", "DERL-7 (IL-2 2.5 ng/mL)", 3.15]
]}

###

Tested on: KHYG-1 (IL-2 2.5 ng/mL)
assay_notes: relative IC50 (inflection point of fitted viability curve, relative to fitted max inhibition); higher = less sensitive
run_conditions: 72 h
Please use Fulfilled whenever relative IC50 is not below 100 nM, and Not fulfilled whenever it is.

{"columns": ["compound_structure_string", "system", "category"],
 "data": [
  ["CN1CCc2c(c3ccccc3n2Cc2ccc(C(=O)NO)cc2)C1", "KHYG-1 (IL-2 2.5 ng/mL)", "Fulfilled"],
  ["CC(C)n1nc(-c2ccc3oc(N)nc3c2)c2c(N)ncnc21", "KHYG-1 (IL-2 2.5 ng/mL)", "Fulfilled"],
  ["CN1CCN(C2CCN(C(=O)Nc3cc(Oc4ccc(NC(=O)C5(C(=O)Nc6ccc(F)cc6)CC5)c(F)c4)ccn3)CC2)CC1", "KHYG-1 (IL-2 2.5 ng/mL)", "Fulfilled"],
  ["CCOc1cc2ncc(C#N)c(Nc3ccc(F)c(Cl)c3)c2cc1NC(=O)/C=C/CN(C)C", "KHYG-1 (IL-2 2.5 ng/mL)", "Fulfilled"],
  ["CO[C@@H]1[C@H](N(C)C(=O)c2ccccc2)C[C@H]2O[C@]1(C)n1c3ccccc3c3c4c(c5c6ccccc6n2c5c31)C(=O)NC4", "KHYG-1 (IL-2 2.5 ng/mL)", "Fulfilled"],
  ["COc1ccc(-c2cc3c(C)nc(N)nc3n([C@H]3CC[C@H](OCCO)CC3)c2=O)cn1", "KHYG-1 (IL-2 2.5 ng/mL)", "Fulfilled"],
  ["CON(C)C(=O)N1N=C(c2cc(F)ccc2F)S[C@@]1(CCCN)c1ccccc1", "KHYG-1 (IL-2 2.5 ng/mL)", "Not fulfilled"],
  ["O=C(Nc1c[nH]nc1-c1nc2ccc(CN3CCOCC3)cc2[nH]1)NC1CC1", "KHYG-1 (IL-2 2.5 ng/mL)", "Not fulfilled"]
]}

###

The molecules listed here are annotated with their drug sensitivity score.
System: NK-92 (IL-2 2.5 ng/mL)
assay_notes: drug sensitivity score (DSS) (DSS units); higher = more sensitive; extreme values may be limits of the assay
run_conditions: 72 h
recorded_metric: drug sensitivity score

{"columns": ["molecule", "system", "recorded_metric", "endpoint_result"],
 "data": [
  ["CNC(=O)c1ccc(C)c(-n2c(C)cc(OCc3ccc(F)cc3F)c(Br)c2=O)c1 (max concentration tested 1000 nM)", "NK-92 (IL-2 2.5 ng/mL)", "drug sensitivity score", 1.12],
  ["CCNC(=O)c1noc(-c2cc(C(C)C)c(O)cc2O)c1-c1ccc(CN2CCOCC2)cc1 [Luminespib] (max concentration tested 1000 nM)", "NK-92 (IL-2 2.5 ng/mL)", "drug sensitivity score", 25.4],
  ["Cn1cc(-c2ccc3nnc(Sc4ccc5ncccc5c4)n3n2)cn1 [SGX-523] (max concentration tested 5000 nM)", "NK-92 (IL-2 2.5 ng/mL)", "drug sensitivity score", 0],
  ["CCNC(=O)Nc1ccc(-c2nc3c(c(N4CCOC[C@@H]4C)n2)CCN(C2COC2)C3)cc1 [RG-7603] (max concentration tested 2500 nM)", "NK-92 (IL-2 2.5 ng/mL)", "drug sensitivity score", 3.67],
  ["N[C@@H]1CCCN(c2c(/C=C3\\SC(=O)NC3=O)cccc2-c2ccccc2)C1 [AZD1208] (max concentration tested 10000 nM)", "NK-92 (IL-2 2.5 ng/mL)", "drug sensitivity score", 0],
  ["Cc1nc(Nc2n[nH]c3c2CN(C(=O)N[C@H](CN(C)C)c2ccccc2)C3(C)C)c2sccc2n1 (max concentration tested 10000 nM)", "NK-92 (IL-2 2.5 ng/mL)", "drug sensitivity score", 15.2],
  ["CN(C)Cc1ccc(S(=O)(=O)n2ccc(/C=C/C(=O)NO)c2)cc1 [Resminostat] (max concentration tested 10000 nM)", "NK-92 (IL-2 2.5 ng/mL)", "drug sensitivity score", 14.1],
  ["Nc1ncnc2c1c(COc1cccc(Cl)c1)nn2C1CCOCC1 (max concentration tested 10000 nM)", "NK-92 (IL-2 2.5 ng/mL)", "drug sensitivity score", 1.45],
  ["C1=N/C2=N/c3ccc(OCCN4CCCC4)c(c3)COC/C=C/COCc3cccc(c3)C(=C1)N2 [Pacritinib] (max concentration tested 10000 nM)", "NK-92 (IL-2 2.5 ng/mL)", "drug sensitivity score", 10.7],
  ["C/C(=C\\c1csc(C)n1)[C@@H]1C[C@@H]2O[C@]2(C)CCC[C@H](C)[C@H](O)[C@@H](C)C(=O)C(C)(C)[C@@H](O)CC(=O)N1 [Ixabepilone] (max concentration tested 1000 nM)", "NK-92 (IL-2 2.5 ng/mL)", "drug sensitivity score", 4.08],
  ["COc1ccc(-c2cc3c(C)nc(N)nc3n([C@H]3CC[C@H](OCCO)CC3)c2=O)cn1 (max concentration tested 10000 nM)", "NK-92 (IL-2 2.5 ng/mL)", "drug sensitivity score", 22.4],
  ["Cc1nc(N)sc1-c1ccnc(Nc2ccc(N3CCOCC3)cc2)n1 [CYC-116] (max concentration tested 10000 nM)", "NK-92 (IL-2 2.5 ng/mL)", "drug sensitivity score", 8.76],
  ["c1ccc([C@H]2CN3CCSC3=N2)cc1 [Levamisole] (max concentration tested 10000 nM)", "NK-92 (IL-2 2.5 ng/mL)", "drug sensitivity score", 0],
  ["OCCn1cc(-c2cnc3nnn(Cc4ccc5ncccc5c4)c3n2)cn1 (max concentration tested 2500 nM)", "NK-92 (IL-2 2.5 ng/mL)", "drug sensitivity score", 3.17],
  ["CN1CCN(C2CCN(C(=O)Nc3cc(Oc4ccc(NC(=O)C5(C(=O)Nc6ccc(F)cc6)CC5)c(F)c4)ccn3)CC2)CC1 [Golvatinib] (max concentration tested 2500 nM)", "NK-92 (IL-2 2.5 ng/mL)", "drug sensitivity score", 4.41],
  ["CCCNC(=O)Nc1ccc(Oc2ncnc3cc(OC)c(OC)cc23)cc1Cl [KRN-633] (max concentration tested 2500 nM)", "NK-92 (IL-2 2.5 ng/mL)", "drug sensitivity score", 2.65],
  ["CCNC(=O)CCC/C=C\\C[C@@H]1[C@@H](/C=C/[C@@H](O)CCc2ccccc2)[C@H](O)C[C@@H]1O [Bimatoprost] (max concentration tested 5500 nM)", "NK-92 (IL-2 2.5 ng/mL)", "drug sensitivity score", 0.89],
  ["Cc1cc(Nc2cc(N3CCN(C)CC3)nc(Sc3ccc(NC(=O)C4CC4)cc3)n2)n[nH]1 [Tozasertib] (max concentration tested 10000 nM)", "NK-92 (IL-2 2.5 ng/mL)", "drug sensitivity score", 11.4],
  ["CN1CCc2c(c3ccccc3n2Cc2ccc(C(=O)NO)cc2)C1 [Tubastatin A] (max concentration tested 10000 nM)", "NK-92 (IL-2 2.5 ng/mL)", "drug sensitivity score", 8.57],
  ["COc1ccccc1S(=O)(=O)Nc1ccc2c(c1)CN(C)C(=O)N2 [PFI-1] (max concentration tested 10000 nM)", "NK-92 (IL-2 2.5 ng/mL)", "drug sensitivity score", 0.06],
  ["NC(=O)c1cccc2cn(-c3ccc([C@@H]4CCCNC4)cc3)nc12 [Niraparib] (max concentration tested 10000 nM)", "NK-92 (IL-2 2.5 ng/mL)", "drug sensitivity score", 7.65],
  ["CO[C@H]1C[C@@H]2CC[C@@H](C)[C@@](O)(O2)C(=O)C(=O)N2CCCC[C@H]2C(=O)O[C@H]([C@H](C)C[C@@H]2CC[C@@H](O)[C@H](OC)C2)CC(=O)[C@H](C)/C=C(\\C)[C@@H](O)[C@@H](OC)C(=O)[C@H](C)C[C@H](C)/C=C/C=C/C=C/1C [Sirolimus] (max concentration tested 100 nM)", "NK-92 (IL-2 2.5 ng/mL)", "drug sensitivity score", 4.93],
  ["COc1cc2ncnc(Oc3cccc(NC(=O)Nc4cc(C(C)(C)C(F)(F)F)on4)c3)c2cc1OC (max concentration tested 10000 nM)", "NK-92 (IL-2 2.5 ng/mL)", "drug sensitivity score", 2.92],
  ["COc1cc2nccc(Oc3ccc(NC(=O)NC4CC4)c(Cl)c3)c2cc1C(N)=O [Lenvatinib] (max concentration tested 2500 nM)", "NK-92 (IL-2 2.5 ng/mL)", "drug sensitivity score", 4.08]
]}
